# protocol-details: Her2 expression decrease, cell viability multiplex – SKBR3 breast tumor cells, AlphaScreen, ATP viability, primary screen (AID 461);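 further: percent of carrier control wells set as 100% viability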
# condition-description: SKBR3 Her2 protein level, 18-24 h, measured here: SKBR3 viability, ATP luminescence, at 10 µM
readout-label: viability (%)
Provide the reading as a plain figure in %.

Exam item: Value lookup for viability; key = O=C(C1CCCN(S(=O)(=O)c2cccnc2)C1)N1CCn2c1nc1ccccc12 (centres undefined)
Marked response: 90.5

Exam item: # query: viability of entry Cc1ccc2nc(NC(=O)Cn3cc4c(n3)CCCCC4)sc2c1
Marked response: 91.5

Exam item: Consider the molecule shown here: CCOC(=O)Cc1ccc(NS(=O)(=O)c2ccc(SC)cc2)cc1 What is its recorded viability?
Marked response: 89

Exam item: Fill in: viability of CCC(=O)c1cc(F)c(N2CCN(C(=O)c3ccco3)CC2)cc1C is ___
Marked response: 82

Exam item: If you can, please state the reported viability value of CCOc1ccccc1C(=O)Nc1cc(=O)n(C)c(=O)n1C .
Marked response: 89.5

Exam item: Param item = CC(C)(C)SCCNC(=O)COc1ccccc1 ; retrieve measured viability.
Marked response: 112

Exam item: Consider the molecule shown here: Cc1ccccc1OCc1nnc2n1CC(C)S2 (centres undefined) What is its recorded viability?
Marked response: 99

Exam item: Item CCCCN(C(=O)c1ccc(Cl)cc1)C1CC2CCC(C1)N2C (centres undefined) has what recorded viability?
Marked response: 87.5

Exam item: Find the recorded viability belonging to c1nc(NCC2CCCO2)c2[nH]cnc2n1 (centres undefined) and report it.
Marked response: 83.5

----------
Kindly supply the reported inhibition values for the records listed here.
# protocol-details: RAM pathway blockade in budding yeast – dse1pr::URA3 reporter, 5-FOA selection, pilot screen (AID 869);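 further: 0% = DMSO wells with no growth and 100% = 10 µM 1-NA-PP1 with full growth; RAM network block rescues cells from 5-FOA so hits raise OD615 growth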
# condition-description: S. cerevisiae dse1pr::URA3 5-FOA growth, OD615, 2 d; at 10 µM; stronger effect = higher value; strain carries analog-sensitive mutant Cbk1 kinase
Kindly provide the numeric value in % only, without the unit symbol.

Exam item: Which inhibition value belongs to O=c1oc2c3c4c(cc2cc1-c1nc2ccccc2[nH]1)CCCN4CCC3 ?
Marked response: 1.73

Exam item: I would be grateful if you could share the reported inhibition for CCOC(=O)CSC(CC)C(=O)Nc1nnc(CC)s1 (stereo unspecified) .
Marked response: 0.62

Exam item: Look at this molecule and give its reported inhibition. CCOCCCNC(=O)Cn1ncc2c(=O)oc3ccccc3c21
Marked response: -0.73

Exam item: Requested field: inhibition. Item: Cc1cc2ncn(C(=O)N3CCOCC3)c2cc1C
Marked response: 1.22

Exam item: Using the record for CC(c1ccco1)N(C(=O)COc1ccc(Cl)cc1Cl)c1ccccn1 (stereo unspecified) , report its inhibition.
Marked response: 2.06

Exam item: Which inhibition value is on record for O=C(O)C1CC(=O)N(CCOc2ccccc2)C1 (stereo unspecified) ?
Marked response: 0.69

Exam item: Reported inhibition for COc1ccc(NC(=O)NCCN2CCN(c3cccc(Cl)c3)CC2)cc1 : what is it?
Marked response: 0.88

Exam item: Name the reported inhibition value associated with the molecule O=C(Cn1cc2c(n1)CCCCC2)N1CCc2ccccc21
Marked response: 2.15

Exam item: Which inhibition value is on record for CC1CCCCC1NC(=O)Cn1ncc2ccccc21 (stereo unspecified) ?
Marked response: 1.98

Exam item: Report inhibition for CC(=O)Nc1cccc(Oc2nc(C)cc(C)c2C#N)c1 please.
Marked response: 1.34

Exam item: I am curious: what inhibition value has been reported for CCOC(=O)N1CCC(N2C(=O)c3ccccc3C2Nc2ccccc2C)CC1 (stereo unspecified) ?
Marked response: 2.58

----------
# protocol-details: RAM pathway blockade in budding yeast – dse1pr::URA3 reporter, 5-FOA selection, pilot screen (AID 869);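 further: 0% = DMSO wells with no growth and 100% = 10 µM 1-NA-PP1 with full growth; RAM network block rescues cells from 5-FOA so hits raise OD615 growth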
# condition-description: S. cerevisiae dse1pr::URA3 5-FOA growth, OD615, 2 d; at 10 µM; stronger effect = higher value; strain carries analog-sensitive mutant Cbk1 kinase
What inhibition was measured for each of the following?
Respond numerically; units are % and should not be typed.

Exam item: For the molecule shown here, COc1ccccc1NC(=O)N1CCN(c2ccc3nncn3n2)CC1 , give the reported inhibition.
Marked response: -0.315

Exam item: Give its inhibition value. Item: CC1(C)NC(=O)N(CC(O)COc2cccc(F)c2)C1=O (configuration not stated)
Marked response: 1.2

Exam item: Consider the molecule shown here: Cc1onc(-c2ccccc2Cl)c1C(=O)N1CCc2ccccc21 What is its recorded inhibition?
Marked response: 2.23

Exam item: Which inhibition is listed for O=C(CNS(=O)(=O)c1cccs1)Nc1ccc2c(c1)OCCO2 ?
Marked response: 1.3

Exam item: Entry under review: O=C(Nc1ccccn1)c1cccc(S(=O)(=O)N2CCOCC2)c1 . Reported inhibition?
Marked response: 1.09

Exam item: Entry Cc1ccc(N=Cc2ccc[nH]2)c(O)c1 has what inhibition?
Marked response: 1.36

Exam item: # lookup: inhibition of Cc1ccc2nc(-c3ccccc3)cc(C(=O)O)c2c1
Marked response: 1.46

----------
Kindly supply the reported viability values for the records listed here.
# protocol-details: MRP1 drug-resistance reversers in H69AR cells – cell-based, doxorubicin co-treatment, pilot screen (AID 601)
# condition-description: H69AR cells + 2 uM doxorubicin, CellTiter-Glo, 72 h; measured here: viability with 2 uM doxorubicin; at 10 µM; stronger effect = lower value
Please state the figure in %; there is no need to write the unit.

Exam item: Which viability reading was recorded for the compound CCN(CC)Cc1c(C(=O)OC)nnn1-c1nonc1N ?
Marked response: 92.1

Exam item: Please look up its viability: Cc1cccc(NC(=O)Nc2cccc(C#N)c2)n1
Marked response: 87.5

Exam item: Name the recorded viability for COc1cc(-c2nc(-c3ccncc3)no2)cc(OC)c1OC .
Marked response: 88

Exam item: Find the recorded viability belonging to COc1cc(C2N3CC4(C)CN2CC(C)(C3)C4)ccc1O (stereo not given) and report it.
Marked response: 92.3

Exam item: Sample CCC(C)NC(=O)c1cn(CC)c2ccc(S(=O)(=O)N(C)C)cc2c1=O (stereo not given) — what was its viability?
Marked response: 90.6

----------
# protocol-details: viability of HCT116 without oncogenic beta-catenin – human colon tumor cells, pilot screen (AID 823);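 further: 0% = wells killed by 20 µM Hyamine and 100% = untreated DMSO cell wells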
# condition-description: HCT116 beta-catenin knockout viability, CellTiter-Glo, 60 h; at 10 µM; stronger effect = lower value
Records with an inconclusive call do not appear. Calls of active or inactive are those of the source.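 Rule for the calls: active = cell viability at or below a set limit in both duplicate runs, the limit being the all-compound median minus 4 SD (cut at about 23% in these data, passing the limit was not always enough); inconclusive = no clear call, values can overlap the other calls; inactive = the rest.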
Please go through the items and note down their viability.

Exam item: Report viability for CC(=O)NC(C)c1nc2ccccc2n1C(C)C (centres undefined) please.
Marked response: 84.8% (inactive)

Exam item: # query: viability of entry O=C(Nc1nnc(-c2ccc(Cl)cc2)o1)C1CCCCC1
Marked response: 54.2% (inactive)

Exam item: Request the reported viability associated with CC1(C(=O)NC2CCCCC2)CCC(=O)N1Cc1cccs1 (centres undefined)
Marked response: 102% (inactive)

Exam item: Fill blank: measured viability of the compound Cn1c(=O)c2nnn(/N=C(\c3ccccc3)C3CC3)c2n(C)c1=O is ____.
Marked response: 103% (inactive)

----------
# protocol-details: S. cerevisiae growth inhibition in permissive medium (OD615), pilot counter-assay for S. cerevisiae lifespan shortening project, permissive growth control (AID 705)
# condition-description: OD615, 24 h, at 10 µM, stronger effect = higher value
Active and inactive are the calls of the source.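 How the source made its calls: active means growth inhibition above 25% in both replicates, a cutoff set 3 SD above the mean; inconclusive means above 25% in only one replicate; inactive means the rest.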
readout-label: growth inhibition

Exam item: Using the record for O=C(C1CCCN(S(=O)(=O)c2cccnc2)C1)N1CCn2c1nc1ccccc12 (stereo not drawn) , report its growth inhibition.
Marked response: 5.56% (inactive)

Exam item: So what's the measured growth inhibition for this one? NC(=O)C1CCN(C(=O)c2cnn(-c3ccccc3)c2NC(=O)c2ccco2)CC1
Marked response: -2.77% (inactive)

Exam item: I'd like to know its growth inhibition. The compound in question is COc1ccc(NC(=O)C2Cc3ccccc3C(=O)O2)cc1 (stereo not drawn)
Marked response: 1.22% (inactive)

----------
# protocol-details: HUVEC growth inhibition – cell-based, human, primary screen (AID 575);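 further: 100% = median of untreated cell wells with 0.1% DMSO on each plate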
# condition-description: HUVEC proliferation, CellTiter-Glo luminescence, 72 h; at 10 µM; stronger effect = lower value
Field: viability. Provide a value for each of the compounds that follow.
Numbers only; they are read as %.

Exam item: Record request: viability value, item CN(C)CCCNC(=O)CCC1CCCCC1
Marked response: 101

Exam item: Given the compound O=C1CN(c2nc3ccccc3n3cnnc23)CC(=O)N1CCc1ccccc1 , what is its reported viability?
Marked response: 104

Exam item: What value of viability has been reported for the following compound? Cc1c(C(=O)OC2CCC(C)CC2)[nH]c2c1C(=O)CCC2 (stereo not drawn)
Marked response: 87.6

Exam item: For Clc1cccc(N2CCN(Cc3nc(-c4ccccc4)no3)CC2)c1 , what is its reported viability?
Marked response: 109

Exam item: Given O=C(c1ccc(=O)[nH]c1)N(Cc1ccco1)C1(C(=O)NC2CCCC2)CCCCC1 , state its recorded viability.
Marked response: 102

Exam item: # input compound: CC(=O)Nc1cccc(NC(=O)c2ccco2)c1 ; wanted: its viability
Marked response: 108

Exam item: I have this compound here, Cc1ccccc1CSc1nnc(C)c(=O)[nH]1 , and I need its recorded viability.
Marked response: 104

Exam item: Which viability is listed for CC1CCN(c2c(NCc3ccc(C(=O)N4c5ccccc5CC4C)cc3)c(=O)c2=O)CC1 (stereo not drawn) ?
Marked response: 70.5
